System: TMD5;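 further: ALL cell lines in 384-well plates, five doses spanning 10,000-fold, each plate scaled between vehicle and 100 µmol/L benzalkonium chloride controls, sDSS an adapted area-under-curve metric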
Experiment: selective drug sensitivity score (sDSS, relative to normal bone marrow) (sDSS (score)); higher = more potent and effective on the cell line relative to normal bone marrow cells
Details: 72 h
Test Readout: selective drug sensitivity score

INSERT INTO measurements (compound, measured_value) VALUES
  ('Clc1ccccc1C(c1ccccc1)(c1ccccc1)n1cccn1 [TRAM-34] (top concentration 1000 nM)', -0.08),
  ('CN[C@@H]1C[C@H]2O[C@@](C)([C@@H]1OC)n1c3ccccc3c3c4c(c5c6ccccc6n2c5c31)C(=O)N[C@H]4O [UCN-01] (top concentration 10000 nM)', -0.36),
  ('NC(=O)/C(=C/n1cnc(-c2cc(C(F)(F)F)cc(C(F)(F)F)c2)n1)c1cncnc1 [Eltanexor] (top concentration 10000 nM)', -1.84),
  ('COc1cc(Nc2c(C#N)cnc3cc(OCCCN4CCN(C)CC4)c(OC)cc23)c(Cl)cc1Cl [Bosutinib] (top concentration 10000 nM)', 9.06),
  ('O=C(Nc1cc(Cl)cc2c1[nH]c1cnccc12)c1cccnc1 [PS-1145] (top concentration 25000 nM)', -0.46),
  ('CC(=O)c1c(C)c2cnc(Nc3ccc(N4CCNCC4)cn3)nc2n(C2CCCC2)c1=O [Palbociclib] (top concentration 10000 nM)', -5.22),
  ('COc1c(C)cnc(Cn2cnc3c(Cl)nc(N)nc32)c1C [BIIB021] (top concentration 10000 nM)', 1.58),
  ('Nc1cc(F)ccc1NC(=O)c1ccc(CNC(=O)/C=C/c2cccnc2)cc1 [Tucidinostat] (top concentration 10000 nM)', 4.14),
  ('Cc1ccc(NS(=O)(=O)c2cccc(C#N)c2)c2[nH]cc(C#N)c12 [E7820] (top concentration 50000 nM)', 7.32),
  ('CO[C@H]1C[C@@H]2CC[C@@H](C)[C@@](O)(O2)C(=O)C(=O)N2CCCC[C@H]2C(=O)O[C@H]([C@H](C)C[C@@H]2CC[C@@H](OCCO)[C@H](OC)C2)CC(=O)[C@H](C)/C=C(\C)[C@@H](O)[C@@H](OC)C(=O)[C@H](C)C[C@H](C)/C=C/C=C/C=C/1C [Everolimus] (top concentration 100 nM)', -3.8),
  ('CC[C@@H]1CN(C(=O)NCC(F)(F)F)C[C@@H]1c1cnc2cnc3[nH]ccc3n12 [Upadacitinib] (top concentration 10000 nM)', -7.16),
  ('CC[C@@H]1[C@H](F)C(=O)N[C@@H]1COc1nccc2cc(C(N)=O)c(OC)cc12 (top concentration 10000 nM)', -1.32);
